# experimentalTarget: GCN2 kinase (Homo sapiens, UniProt Q9P2K8)
# Sequence (Q9P2K8 whole entry): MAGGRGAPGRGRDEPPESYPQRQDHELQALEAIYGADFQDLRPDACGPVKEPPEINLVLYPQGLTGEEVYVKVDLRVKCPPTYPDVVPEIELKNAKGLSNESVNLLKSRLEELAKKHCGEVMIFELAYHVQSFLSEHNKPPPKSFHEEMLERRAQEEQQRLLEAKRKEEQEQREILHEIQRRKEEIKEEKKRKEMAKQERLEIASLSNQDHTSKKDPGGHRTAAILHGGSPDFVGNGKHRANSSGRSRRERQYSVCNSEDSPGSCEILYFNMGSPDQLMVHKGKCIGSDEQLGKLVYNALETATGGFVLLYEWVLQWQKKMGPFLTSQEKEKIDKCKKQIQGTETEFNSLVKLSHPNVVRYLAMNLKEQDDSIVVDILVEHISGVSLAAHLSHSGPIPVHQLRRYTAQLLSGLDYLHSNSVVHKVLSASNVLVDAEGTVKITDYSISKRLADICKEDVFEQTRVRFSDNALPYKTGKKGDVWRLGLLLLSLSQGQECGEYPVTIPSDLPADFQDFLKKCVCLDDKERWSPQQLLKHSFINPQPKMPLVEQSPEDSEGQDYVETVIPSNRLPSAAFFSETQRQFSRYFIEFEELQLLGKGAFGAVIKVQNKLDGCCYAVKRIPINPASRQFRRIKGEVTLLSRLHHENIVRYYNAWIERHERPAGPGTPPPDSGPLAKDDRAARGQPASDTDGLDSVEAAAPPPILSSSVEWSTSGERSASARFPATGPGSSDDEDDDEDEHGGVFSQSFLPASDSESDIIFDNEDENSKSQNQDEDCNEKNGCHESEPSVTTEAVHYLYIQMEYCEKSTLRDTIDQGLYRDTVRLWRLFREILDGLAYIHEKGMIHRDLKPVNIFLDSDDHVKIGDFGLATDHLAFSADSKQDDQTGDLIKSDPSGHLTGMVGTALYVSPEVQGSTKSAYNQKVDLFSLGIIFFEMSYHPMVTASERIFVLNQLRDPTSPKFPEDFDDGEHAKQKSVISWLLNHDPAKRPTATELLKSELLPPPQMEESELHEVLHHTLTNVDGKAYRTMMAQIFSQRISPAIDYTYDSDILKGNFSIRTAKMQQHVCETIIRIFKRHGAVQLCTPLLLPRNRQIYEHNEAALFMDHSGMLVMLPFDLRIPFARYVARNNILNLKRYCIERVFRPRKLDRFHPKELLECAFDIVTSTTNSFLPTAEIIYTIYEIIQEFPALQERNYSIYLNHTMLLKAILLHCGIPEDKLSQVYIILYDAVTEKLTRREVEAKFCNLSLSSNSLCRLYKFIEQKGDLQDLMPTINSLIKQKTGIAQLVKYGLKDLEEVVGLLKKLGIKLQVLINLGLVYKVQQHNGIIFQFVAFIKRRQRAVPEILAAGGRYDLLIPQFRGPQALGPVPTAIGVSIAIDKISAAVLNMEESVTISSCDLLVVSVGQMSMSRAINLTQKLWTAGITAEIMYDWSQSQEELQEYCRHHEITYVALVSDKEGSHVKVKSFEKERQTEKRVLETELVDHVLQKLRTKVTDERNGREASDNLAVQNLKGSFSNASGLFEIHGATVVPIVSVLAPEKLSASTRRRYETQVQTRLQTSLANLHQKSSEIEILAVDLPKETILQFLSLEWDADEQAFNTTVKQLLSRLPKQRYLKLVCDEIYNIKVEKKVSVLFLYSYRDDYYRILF
# method: GCN2 enzyme inhibition assay (Transcreener ADP2 fluorescence polarization)
# Format: biochemical
# experimentalParameters: Enzyme activity for compounds of Formula IV; Ki(app), 280 μM ATP, 25° C.
pKi: −log10 of the molar value.
experimentalEndpoint: pKi

Take a look at these entries with their results.
compound: CC(=O)NC1CCCN(c2ccnc(-c3cnc4cnc(C(F)(F)F)cn34)n2)C1 (stereo not drawn)
experimentalTarget: GCN2 kinase (Homo sapiens, UniProt Q9P2K8)
pKi: 6.00 to 7.00
--
compound: CC(C)(C)OC(=O)N1CCC2(CC1)CCN(c1ccnc(-c3cnc4cnc(C(F)F)cn34)n1)C2
experimentalTarget: GCN2 kinase (Homo sapiens, UniProt Q9P2K8)
pKi: 6.00 to 7.00

What does the data say about its pKi? Entry: OCC1CCN(c2ccnc(-c3cnc4cnc(C(F)(F)F)cn34)n2)CC1
6.00 to 7.00
